This listing pairs compounds with measured IC50.
target: receptor tyrosine kinase (Homo sapiens, UniProt P00533); construct: The supernatant, containing solubilised receptor tyrosine kinase, was stored in liquid nitrogen; endogenous in cells; detergent-solubilised membrane fraction; test: Test (a): in vitro receptor tyrosine kinase inhibition assay (EGF-stimulated peptide phosphorylation, [γ-32P]ATP); details: enzyme partially purified from A-431 cells (human vulval carcinoma); in presence of EGF; 25°C for 10 minutes
Sequence (P00533 25-1210): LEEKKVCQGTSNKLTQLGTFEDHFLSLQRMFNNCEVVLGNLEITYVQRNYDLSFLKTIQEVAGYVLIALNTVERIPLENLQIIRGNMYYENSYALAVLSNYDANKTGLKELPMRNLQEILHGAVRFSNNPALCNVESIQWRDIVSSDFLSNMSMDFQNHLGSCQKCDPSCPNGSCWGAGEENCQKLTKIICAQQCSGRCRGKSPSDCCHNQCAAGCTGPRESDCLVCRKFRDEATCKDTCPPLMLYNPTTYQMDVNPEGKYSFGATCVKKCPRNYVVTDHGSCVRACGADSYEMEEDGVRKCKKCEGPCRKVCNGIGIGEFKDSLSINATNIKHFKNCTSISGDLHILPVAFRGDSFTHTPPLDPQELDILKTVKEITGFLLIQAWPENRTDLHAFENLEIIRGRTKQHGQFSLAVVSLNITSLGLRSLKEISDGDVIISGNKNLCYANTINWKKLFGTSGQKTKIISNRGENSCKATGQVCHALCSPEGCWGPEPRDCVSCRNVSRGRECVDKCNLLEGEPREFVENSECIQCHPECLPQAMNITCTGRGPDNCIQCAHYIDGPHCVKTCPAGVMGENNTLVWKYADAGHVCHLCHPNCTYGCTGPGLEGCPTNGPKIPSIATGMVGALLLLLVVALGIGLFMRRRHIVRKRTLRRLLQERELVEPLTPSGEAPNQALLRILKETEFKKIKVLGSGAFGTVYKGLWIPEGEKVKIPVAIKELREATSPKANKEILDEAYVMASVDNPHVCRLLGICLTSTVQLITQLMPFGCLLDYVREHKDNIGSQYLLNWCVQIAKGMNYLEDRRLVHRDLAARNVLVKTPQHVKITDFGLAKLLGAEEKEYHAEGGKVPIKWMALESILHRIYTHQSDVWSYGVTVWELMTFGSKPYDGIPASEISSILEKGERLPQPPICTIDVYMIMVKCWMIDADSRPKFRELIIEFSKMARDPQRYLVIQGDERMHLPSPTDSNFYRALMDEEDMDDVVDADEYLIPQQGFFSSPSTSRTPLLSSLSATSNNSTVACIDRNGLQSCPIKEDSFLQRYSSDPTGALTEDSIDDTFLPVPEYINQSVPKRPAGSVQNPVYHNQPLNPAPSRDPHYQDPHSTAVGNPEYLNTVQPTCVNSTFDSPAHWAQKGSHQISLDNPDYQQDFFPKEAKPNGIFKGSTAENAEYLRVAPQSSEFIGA
Counter-ions that a name gives are not always drawn.
Write the numeric value and append its unit.

• Clc1cccc(Nc2ncnc3cc(Cl)ccc23)c1 = 20 nM
• Brc1cccc(Nc2ncnc3ccccc23)c1 [4-(3'-bromoanilino)quinazoline, hydrochloride] = 20 nM
• Cc1cccc(Nc2ncnc3ccccc23)c1 = 180 nM

Pending compound:
Fill blank: measured IC50 of the compound Clc1cccc(Nc2ncnc3ccccc23)c1 [4-(3'-chloroanilino)quinazoline, hydrochloride] is ____.
40 nM
